These entries and their values trace back to patent US8017400B2.

- MEASUREMENT TARGET: wild-type ALS (GST fusion wild-type ALS) (Oryza sativa subsp. japonica, UniProt Q6K2E8)
- Sequence (Q6K2E8 44-644): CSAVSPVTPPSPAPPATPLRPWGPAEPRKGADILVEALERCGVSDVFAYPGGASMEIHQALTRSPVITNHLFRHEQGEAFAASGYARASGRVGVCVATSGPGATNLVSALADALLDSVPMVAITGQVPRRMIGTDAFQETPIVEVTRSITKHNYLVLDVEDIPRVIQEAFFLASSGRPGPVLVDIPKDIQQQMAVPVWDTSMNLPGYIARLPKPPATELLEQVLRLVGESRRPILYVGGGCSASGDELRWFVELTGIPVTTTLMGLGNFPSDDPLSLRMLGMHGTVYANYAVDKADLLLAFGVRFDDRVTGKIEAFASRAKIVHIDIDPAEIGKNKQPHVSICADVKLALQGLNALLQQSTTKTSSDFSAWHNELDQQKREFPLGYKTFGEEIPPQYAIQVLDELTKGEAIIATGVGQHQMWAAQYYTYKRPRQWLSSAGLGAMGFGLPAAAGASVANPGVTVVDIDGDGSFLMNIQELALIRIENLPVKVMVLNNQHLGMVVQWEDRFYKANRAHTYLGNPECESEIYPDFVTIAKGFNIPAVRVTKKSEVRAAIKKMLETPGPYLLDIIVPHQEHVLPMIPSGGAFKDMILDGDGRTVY
- ASSAY EXPLANATION: Inhibition of expressed GST fusion wild-type ALS activity by herbicides
Quick reference for log10 IC50 among some compounds
READOUT NAME: log10 IC50 (log10 of the value in nM)

COMPOUND: COC(=O)c1ccccc1CS(=O)(=O)NC(=O)Nc1nc(OC)cc(OC)n1
log10 IC50: 0.85
--
COMPOUND: COc1nc(C)nc(NC(=O)NS(=O)(=O)c2ccccc2Cl)n1
log10 IC50: 1.11
--
COMPOUND: CC(C)C1(C)N=C(c2ncccc2C(=O)O)NC1=O (stereo not shown)
log10 IC50: 3.98
--
COMPOUND: CON=C(C)c1cccc(Oc2nc(OC)cc(OC)n2)c1C(=O)O (mixture of isomers)
log10 IC50: 0.90
--
COMPOUND: COc1cc(OC)nc(Oc2cccc(Oc3nc(OC)cc(OC)n3)c2C(=O)[O-])n1.[Na+] [Bispyribac-sodium, bispyribac-sodium]
log10 IC50: 0.80
--
COMPOUND: CC(C)C1(C)N=C(c2nc3ccccc3cc2C(=O)O)NC1=O (stereo not shown)
log10 IC50: 3.34
--
COMPOUND: COc1cc(OC)nc(Sc2cccc(Cl)c2C(=O)[O-])n1.[Na+] [Pyrithiobac-sodium, pyrithiobac-sodium]
log10 IC50: 1.04
